Below, each entry is listed with its recorded IC50.
- Target: UniProtKB P21802
- Sequence (P21802 22-821): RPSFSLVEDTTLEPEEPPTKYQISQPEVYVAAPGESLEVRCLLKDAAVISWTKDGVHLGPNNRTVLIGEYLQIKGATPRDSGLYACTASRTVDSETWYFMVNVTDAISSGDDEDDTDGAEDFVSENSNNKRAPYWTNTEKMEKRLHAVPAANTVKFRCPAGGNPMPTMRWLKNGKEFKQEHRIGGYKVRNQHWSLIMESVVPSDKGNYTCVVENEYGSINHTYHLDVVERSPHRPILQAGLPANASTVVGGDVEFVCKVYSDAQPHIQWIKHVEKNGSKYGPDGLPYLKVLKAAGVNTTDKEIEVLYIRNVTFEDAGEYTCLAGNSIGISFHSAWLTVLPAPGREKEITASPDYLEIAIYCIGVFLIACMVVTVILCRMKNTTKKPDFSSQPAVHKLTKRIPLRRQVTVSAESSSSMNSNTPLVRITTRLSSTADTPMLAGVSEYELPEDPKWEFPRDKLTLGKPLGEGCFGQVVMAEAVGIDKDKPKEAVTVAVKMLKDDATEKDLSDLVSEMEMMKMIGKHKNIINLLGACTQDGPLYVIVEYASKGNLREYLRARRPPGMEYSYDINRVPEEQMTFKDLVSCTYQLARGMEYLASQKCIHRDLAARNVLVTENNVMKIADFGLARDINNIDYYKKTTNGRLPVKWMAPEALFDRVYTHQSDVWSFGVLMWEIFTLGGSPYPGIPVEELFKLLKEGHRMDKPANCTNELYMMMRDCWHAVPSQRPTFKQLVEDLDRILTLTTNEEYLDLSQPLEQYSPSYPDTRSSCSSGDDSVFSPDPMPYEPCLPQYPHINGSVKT
- Test Method Notes: FGFR2 (enzymatic assay), TR-FRET
- Assay type: biochemical
- Setup Conditions: 0.4 μM ATP, 60 min; pIC50 = -log IC50 (M); average if tested multiple times; read-out: FGFR 2 pIC50 (converted)
Measure: IC50 (M)

* COc1cc(OC)cc(N(CC(O)C(F)(F)F)c2ccc3ncc(-c4cnn(C)c4)cc3c2)c1 (single isomer, unassigned) [Compound 24] | 4.9e-09
* COc1cc(OC)cc(N(CCNC(C)C)c2ccc3ncc(-c4cnn(CCS(C)(=O)=O)c4)cc3c2)c1 | 5.25e-09
* COc1cc(OC)cc(N(CC#Cc2nccn2C)c2ccc3ncc(-c4cnn(C)c4)cc3c2)c1 | 1.45e-08
* COc1cc(OC)cc(N(Cc2nccn2S(=O)(=O)N(C)C)c2ccc3ncc(-c4cnn(C)c4)cc3c2)c1 | 7.76e-09
* COc1cc(OC)c(F)c(N(CCNC(C)C)c2ccc3ncc(-c4cnn(C)c4)cc3c2)c1F | 3.16e-09
* COc1cc(OC)cc(N(Cc2ncc[nH]2)c2ccc3ncc(C4CCNCC4)cc3c2)c1 [Compound 48a] | 1.7e-07

Origin of values: patent US10039759B2
